Numbers sourced from ChEMBL document CHEMBL1201862.

As shown below, each of these compounds has a reported GI50 value.
Test system: XF498
Assay: NCI tumour cell line growth inhibition, 48 h
Activity calls are given as the source filed them. Cut-off read from the data, not from the text of the source: active = GI50 up to about 1.1 µM and inactive = higher.
measured attribute: GI50

O=C(CCC(=O)C(C(=O)c1ccccc1)c1ccccc1)Nc1cccc(C(F)(F)F)c1 (stereo not given) ... > 100 µM (inactive)
CC(C)C1COC(c2ccc3ccccc3c2-c2c(O[Si](C)(C)C(C)(C)C)ccc3ccccc23)=N1 (stereo not given) ... 14.5 µM (inactive)
Cc1c2cnccc2c(C)c2c1c1ccccc1n2CCCCCCNCc1ccccc1 ... 2.29 µM (inactive)
O=C(NC1CCC[C@H]1OC(=O)c1ccccc1)c1ccccc1 (stereo not given in full) ... 35.3 µM (inactive)
CCc1ccccc1NC(=O)C1=C(C)NC(C)=C(C(=O)Nc2ccccc2CC)C1c1ccc2c(c1)OCO2 ... 23 µM (inactive)
